PROCEDURE_DETAILS: xn = mol fraction of the nth substance listed
EXPERIMENTAL_CONDITIONS: 308.15 K; 101 kPa; Liquid; Vibrating tube method; x1 = 0.7
Hi there, I'd appreciate the recorded mass density for every entry that follows.
The figure you give is taken to be in kg/m3; do not add the unit.

get_value(item= COC(=O)CCCCl [methyl 4-chlorobutanoate] + Cc1ccc(C)cc1 , readout=mass density) returns 1027.62

get_value(item= COC(=O)CCCCl [methyl 4-chlorobutanoate] + Cc1ccccc1C , readout=mass density) returns 1034.19

get_value(item= COC(=O)CCCCl [methyl 4-chlorobutanoate] + c1ccccc1 , readout=mass density) returns 1047.97

get_value(item= COC(=O)CCCCl [methyl 4-chlorobutanoate] + Cc1ccccc1 , readout=mass density) returns 1037.22

Just for reference, the NIST ThermoML archive (doi:10.1021/je900194v) is where these values come from.
